In this section we review reported TGI values for a set of compounds.
System: U251 CNS
testMethodNotes: NCI tumour cell line growth inhibition, 48 h

# compound, TGI
measured = [
    ("O=C(CCc1nnc(-c2c(Cl)cccc2Cl)o1)c1nc2ccccc2[nH]1", "77.6 µM"),
    ("CCOC(=O)NC(=O)c1cn(CCCCCOC(=O)NCCCCCCNC(=O)OCCCCCn2cc(C(=O)NC(=O)OCC)c(=O)[nH]c2=O)c(=O)[nH]c1=O", "> 100 µM"),
    ("O=C1CSC(=S)N1c1ccc(F)cc1F", "> 100 µM"),
    ("Cn1c(=O)oc2cc(C(=S)N3CCC(Cc4ccccc4)CC3)ccc21", "> 100 µM"),
    ("C=C1C(=O)O[C@H]2[C@H]1CC/C(COC(=O)/C=C\\C(=O)NCc1ccc(Cn3c(=O)sn(-c4ccc(OC)cc4)c3=O)cc1)=C\\CC[C@@]1(C)O[C@@H]21", "2.19 µM"),
    ("O=C(CC1(O)C(=O)Nc2c(Cl)cccc21)c1ccccc1 (stereo unspecified)", "> 100 µM"),
    ("Nc1nc(=O)n(C2CC(O)C(O)C(CO)O2)cc1F (stereo unspecified)", "> 100 µM"),
    ("Nc1ncnc2c1ncn2[C@@H]1C[C@H]1CO", "> 100 µM"),
    ("O=C(Nc1ncc(Cc2ccccc2)s1)c1ccc2c(c1)OCCO2", "> 100 µM"),
    ("COc1ccc(Nc2c3c4c(cccc4[nH]c2=O)C(=O)c2ccccc2-3)cc1", "> 68.9 µM"),
    ("SC[C@@H]1COC[C@H](CS)S1", "> 100 µM"),
    ("Cc1ccc(Cl)cc1Nc1nc(C(F)(F)F)ccc1C(=O)N/N=C/c1c(Cl)cccc1Cl", "5.78 µM"),
    ("CC(N)C(=O)c1ccc(O)cc1 (stereo unspecified)", "> 100 µM"),
    ("CC(=O)OCc1cccc(O)c1C(=O)CCC=C(C)C", "> 100 µM"),
    ("Cc1cc(C)nc(NS(=O)(=O)c2ccc(NC(=O)c3cccc4c(Nc5ccc(S(=O)(=O)Nc6nc(C)cc(C)n6)cc5)c5ccccc5nc34)cc2)n1", "38.6 µM"),
    ("CC1=NN(c2nc(N)nc(C(C)Sc3cc(Cl)c(C)cc3S(N)(=O)=O)n2)C(C)(C)C1 (stereo unspecified)", "> 10 µM"),
]

###

Test system: TK-10 renal
testMethodNotes: NCI tumour cell line growth inhibition, 48 h

# molecule, studyTarget, TGI
records = [
    ("O=C(N1CCOCC1)C1(c2ccccc2)CCNCC1", "TK-10 renal", "> 100 µM"),
    ("O=S(=O)(O)c1ccc(Cl)cc1.[Cd]", "TK-10 renal", "> 100 µM"),
    ("CC(=O)O[C@H]1C(=O)[C@@]2(C)[C@H]([C@H](OC(=O)c3ccccc3)[C@]3(O)C[C@H](OC(=O)[C@H](O)[C@@H](NC(=O)c4ccccc4)C4CCCCC4)C(C)=C1C3(C)C)[C@]1(OC(C)=O)CO[C@@H]1C[C@@H]2O", "TK-10 renal", "37.4 µM"),
    ("O=c1cc2n(c(=O)[nH]1)C1OC(C(O)C1O)[C@H]2CCO (stereo not given in full)", "TK-10 renal", "> 100 µM"),
    ("Cc1cc(C)nc(NS(=O)(=O)c2ccc(NC(=O)c3cccc4c(Nc5ccc(S(=O)(=O)Nc6nc(C)cc(C)n6)cc5)c5ccccc5nc34)cc2)n1", "TK-10 renal", "73.3 µM"),
    ("Cc1ccc(C2(C)NC(=S)N(NC(N)=S)C2=S)cc1 (stereo not given)", "TK-10 renal", "> 100 µM"),
    ("Nc1ccn([C@H]2CO[C@@H](CO)O2)c(=O)n1", "TK-10 renal", "> 100 µM"),
    ("CN(CCCCCl)P(=O)(OCc1ccc([N+](=O)[O-])o1)C(F)(F)c1ccc(CC(=O)N[C@@H](CC(=O)O)C(=O)N[C@@H](Cc2ccc(C(F)(F)P(=O)(OCc3ccc([N+](=O)[O-])o3)N(C)CCCCCl)cc2)C(N)=O)cc1 (stereo not given in full)", "TK-10 renal", "> 100 µM"),
    ("C[As](C)Sc1ccnc(S[As](C)C)n1", "TK-10 renal", "14.3 µM"),
    ("CC(C)c1ccc2c(N=Nc3ccc(S(N)(=O)=O)cc3)c(O)[nH]c2c1", "TK-10 renal", "> 24 µM"),
    ("CN(C)c1ccc(/C=C(\\C#N)c2cc3ccccc3n2C)cc1", "TK-10 renal", "> 100 µM"),
    ("C=CCCC(O)c1ccc(C(O)CCCCCCCCCCCC)o1 (stereo not given)", "TK-10 renal", "30.2 µM"),
    ("CN(C)C1(C(=O)O)CC1", "TK-10 renal", "> 100 µM"),
    ("CCOC(=O)C1(Cc2ccccc2)Cc2cc3c(cc2C1=O)CCC3 (stereo not given)", "TK-10 renal", "> 100 µM"),
    ("CCCCCCCCCCCC1=NC(C)(C)CN1CCO", "TK-10 renal", "28.9 µM"),
    ("COCC1C(=O)c2cc3c(cc2C12C=CC1(C=C2)OCCO1)OCO3 (stereo not given)", "TK-10 renal", "34.9 µM"),
    ("Fc1ccc(-c2ncn(C3CCNCC3)c2-c2ccnc(Oc3ccccc3)n2)cc1", "TK-10 renal", "> 25 µM"),
    ("CCc1ccc(CCC(=O)Nc2ncc(Cc3cc(Cl)ccc3Cl)s2)o1", "TK-10 renal", "> 50 µM"),
    ("Cc1ccc(Cl)cc1Nc1nc(C(F)(F)F)ccc1C(=O)N/N=C/c1c(Cl)cccc1Cl", "TK-10 renal", "7.39 µM"),
    ("COC(=O)CCC(=O)CC(=O)C(=O)Nc1ccc(F)cc1", "TK-10 renal", "> 100 µM"),
]
